- System: HL-60
- PROTOCOL DESCRIPTION: NCI tumour cell line growth inhibition, 48 h
Active and inactive are the calls of the source. Rule as the data show it: active = GI50 up to about 1.1 µM and inactive = higher.
Outcome codes: Y = active, N = inactive

>>> df
                                   compound  assigned_label
0  C=C1C(=O)C2=CC1CCC(=O)C1(C)CCC(OC(C)=O)C(C)(C)C1CC2O (stereo unspecified)               Y
1            CC(CO)(CO)/N=C/c1cc(I)cc(I)c1O               N
2  CC(Oc1ccc2c(-c3ccc(Cl)cc3)cc(=O)oc2c1)C(=O)O (stereo unspecified)               N
3  Fc1ccc(NCn2nc(COc3ccccc3Cl)n(/N=C/c3ccc(-c4ccc(Cl)cc4Cl)o3)c2=S)cc1Cl               N
4  Cc1ccc(C2(N3CCCC3)OC(C)(C)c3cccc4cccc2c34)cc1 (stereo unspecified)               N
5  N#CCCN(CCC#N)c1ccc(/C=C2\SC(=S)NC2=O)cc1               N
